- Test system: tonic hind limb extensor convulsions (mouse model of generalised seizure)
- Measurement Notes: mini-MEST (maximal electroshock seizure threshold) test in the mouse
- Measurement Parameters: 5 mg/kg i.p., test 15 min post dose
Could you mark each record TRUE if its CC50 +/− SEM falls strictly under 40 mA, and FALSE if it equals or exceeds it?

Record C=C(C)[C@@H]1C[C@H](O)C(C)=C[C@H]1c1c(O)cc(-c2cccnc2OC)cc1O [Compound 35] : is its CC50 +/− SEM strictly below 40 mA? TRUE

Strictly below 40 mA in CC50 +/− SEM? C=C(C)[C@@H]1C[C@H](O)C(C)=C[C@H]1c1c(O)cc(-c2cccc(OC(F)F)c2)cc1O [Compound 31] TRUE

Threshold test, CC50 +/− SEM < 40 mA: C=C(C)[C@@H]1C[C@H](O)C(C)=C[C@H]1c1c(O)cc(-c2ccc(F)cc2)cc1O [Compound 18] TRUE

Item C=C(C)[C@@H]1C[C@H](O)C(C)=C[C@H]1c1c(O)cc(-c2ccc3c(c2)OCO3)cc1O [Compound 41] : CC50 +/− SEM beneath 40 mA, strictly? FALSE

Is 40 mA strictly greater than the compound's reported CC50 +/− SEM? compound: C=C(C)[C@@H]1C[C@H](O)C(C)=C[C@H]1c1c(O)cc(-c2ccccc2OC)cc1O [Compound 29] TRUE

Lab log: compare recorded CC50 +/− SEM with 40 mA; is it strictly lower for C=C(C)[C@@H]1C[C@H](O)C(C)=C[C@H]1c1c(O)cc(Cl)cc1O [Compound 2] ? TRUE

Is CC50 +/− SEM strictly under 40 mA for the entry C=C(C)[C@@H]1C[C@H](O)C(C)=C[C@H]1c1c(O)cc(C2=CCOCC2)cc1O [Compound 26] ? TRUE

Does the reported CC50 +/− SEM of the following compound sit strictly below 40 mA? C=C(C)[C@@H]1C[C@H](O)C(C)=C[C@H]1c1c(O)c(C)c(-c2ccnc(OC)c2)c(C)c1O [Compound 52] TRUE

Strictly below 40 mA in CC50 +/− SEM? C=C(C)[C@@H]1C[C@H](O)C(C)=C[C@H]1c1c(O)cc(/C=C/C)cc1O [Compound 7] TRUE

Lab note: confirm whether the reported CC50 +/− SEM for this compound is below 40 mA, equality not counting. compound: C=C(C)[C@@H]1C[C@H](O)C(C)=C[C@H]1c1c(O)cc(-c2ccc(OC)cc2)cc1O [Compound 33] TRUE

Please check: CC50 +/− SEM for C=C(C)[C@@H]1C[C@H](O)C(C)=C[C@H]1c1c(O)cc(-c2ccc(F)c(OC)c2)cc1O [Compound 30] , strictly under 40 mA or not? FALSE

Regarding C=C(C)[C@@H]1C[C@H](O)C(C)=C[C@H]1c1c(O)cc(C2CC2)cc1O [Compound 8] , kindly confirm whether its CC50 +/− SEM is beneath 40 mA. TRUE

Report whether reported CC50 +/− SEM is lower than 40 mA (strictly) for C=C(C)[C@@H]1C[C@H](O)C(C)=C[C@H]1c1c(O)cc(-c2ccc(OC(F)F)nc2)cc1O [Compound 19] TRUE

----------
Kindly state CC50 +/− SEM for each of the entries shown.
- Test system: tonic hind limb extensor convulsions (mouse model of generalised seizure)
- Measurement Notes: mini-MEST (maximal electroshock seizure threshold) test in the mouse
- Measurement Parameters: 50 mg/kg i.p., test 30 min post dose

Query CC50 +/− SEM for `C=C(C)[C@@H]1C[C@H](O)C(C)=C[C@H]1c1c(O)cc(-c2cccnc2OC)cc1O` >131.0 mA

Supply measured CC50 +/− SEM of `C=C(C)[C@@H]1C[C@H](O)C(C)=C[C@H]1c1c(O)cc(-c2ccc3c(c2)OCO3)cc1O` in your reply. >131.0 mA

Supply reported CC50 +/− SEM belonging to this molecule: `C=C(C)[C@@H]1C[C@H](O)C(C)=C[C@H]1c1c(O)cc(-c2ccc(F)c(OC)c2)cc1O` >131 mA

State, in one line, measured CC50 +/− SEM of `C=C(C)[C@@H]1C[C@H](O)C(C)=C[C@H]1c1c(O)cc(-c2ccnc(OC)c2)cc1O` 70.5 +/− 1.3 mA

Read the entry `C=C(C)[C@@H]1C[C@H](O)C(C)=C[C@H]1c1c(O)cc(CC)cc1O` and write its reported CC50 +/− SEM. 59.2 +/− 1.4 mA

State its CC50 +/− SEM: `C=C(C)[C@@H]1C[C@H](O)C(C)=C[C@H]1c1c(O)cc(CCOC)cc1O` 50.5 +/− 0.7 mA

// Input: `C=C(C)[C@@H]1C[C@H](O)C(C)=C[C@H]1c1c(O)cc(C2=CCCC2)cc1O` . Output its CC50 +/− SEM only. >131.0 mA
